test: NCI Yeast Anticancer Drug Screen. Data for the rad52 strain (AID 147);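 note: 0% = growth of vehicle-treated control cultures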; conditions: S. cerevisiae rad52 mutant growth inhibition; at 11.0 µM
This is part of a sample that, as a whole, favours compounds with a hit. Of some 79,000 tested, about 15% had one in any assay. The source made the active and inactive calls. Cut-off read from the data, not from the text of the source: active = growth inhibition above about 70%; inactive = the rest.
Possible outcomes: T for active, F for inactive

compound=CN=C(N)N/N=C(\C)c1ccc2oc3ccc(/C(C)=N/NC(N)=NC)cc3c2c1 assigned_class=T
compound=Oc1ccc(Br)cc1C=NC1CCCCC1 assigned_class=F
compound=Cc1cccc(/C=N/NC(=S)N(C)CCc2ccccn2)n1 assigned_class=T
compound=CCOC(=O)Nc1ccc2c(c1)Cc1ccccc1-2 assigned_class=F
compound=CCOC(=O)c1csc(Br)n1 assigned_class=F
compound="CCN(CC)CC(O)C1CCC(c2ccccc2)CC1 (configuration not stated)" assigned_class=F
compound=CC(C)(C)c1ccc(O)c(C(c2ccc([N+](=O)[O-])cc2)c2cc(C(C)(C)C)ccc2O)c1 assigned_class=F

* * *

Assay: NCI Yeast Anticancer Drug Screen. Data for the bub3 strain (AID 167)
Settings: S. cerevisiae bub3 mutant strain, at 3.7 µM, active compounds read high
Method: Growth inhibition of yeast strains with defined genetic alterations is measured as a screen for potential anti-cancer activity. Selected strains with alterations in DNA damage repair or cell cycle control were exposed to compounds and growth inhibition was measured relative to vehicle treated controls. The strain used in this assay is bub3
Compounds without any hit were thinned out: in the full panel of roughly 79,000, 15% have a hit.
# cutoff 10% applies to growth inhibition; >= gives MET, < gives NOT MET

molecule=O=Nc1ccc(Nc2ccccc2)cc1 assigned_class="NOT MET"
molecule="CC1=CCCC2C1(C)CCC(C)C2(C)Cc1cc(O)ccc1O (stereo unspecified)" assigned_class=MET
molecule=CCCCOC(=O)CSSCC(=O)OCCCC assigned_class=MET
molecule=CN(N=O)c1ccc(/C=C/c2ccnc3ccccc23)cc1 assigned_class="NOT MET"
molecule=Nc1cc(F)cc2c1-c1ccc(F)cc1C2 assigned_class="NOT MET"
molecule=O=c1ccc(N=Nc2ccccc2)ccc1O assigned_class=MET

* * *

test: NCI Yeast Anticancer Drug Screen. Data for the sgs1 strain (AID 173);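 note: 0% = growth of vehicle-only control cultures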; details: S. cerevisiae sgs1 mutant, at 100.0 µM, active compounds read high
This is part of a sample that, as a whole, favours compounds with a hit. Of some 79,000 tested, about 15% had one in any assay. Residues, ends and D or L forms follow the SMILES beside them. *: point of attachment. CH2Cl = ClC*
The entries below come with measured growth inhibition values attached.
quantity_measured: growth inhibition (%)

compound=CC[C@@]1(OC(=O)CCC(=O)O)C(=O)OCc2c1cc1n(c2=O)Cc2cc3ccccc3nc2-1 quantity_measured="growth inhibition" measurement=88
compound=CCN(CC)N=Nc1c(C(N)=O)n[nH]c1C quantity_measured="growth inhibition" measurement=43
compound="Cc1cc(O)c2c(c1O)C(=O)C13C(=C2O)C(=O)C2C(O)C1C1C(O)C3C(=O)C3=C(O)c4c(O)cc(C)c(O)c4C(=O)C321 (stereo not drawn)" quantity_measured="growth inhibition" measurement=80
compound=C=C(C)[C@@H]1CCc2c(O)c(O)c(=O)cc(C)c2C1 quantity_measured="growth inhibition" measurement=98
compound=O=NN(CCCl)C(=O)NC1CCCCC1 quantity_measured="growth inhibition" measurement=43
compound=COc1ccc(N=Nc2ccc3oc(=O)c(C(=O)Nc4ccccc4)cc3c2)cc1 quantity_measured="growth inhibition" measurement=96
compound=Cn1ncc2cc3c(Nc4ccc(Cl)cc4)cccc3nc21 quantity_measured="growth inhibition" measurement=42
compound=CCNc1ccc2c(c1)C(=O)N(OS(C)(=O)=O)C2=O quantity_measured="growth inhibition" measurement=62
compound=COc1cc(/C=C/c2sc3ccccc3[n+]2C)ccc1N(C)C quantity_measured="growth inhibition" measurement=97
compound=NCc1c(O)ccc2ccccc12 quantity_measured="growth inhibition" measurement=99
compound=NNC(=S)Nc1cccc(Cl)c1 quantity_measured="growth inhibition" measurement=89
compound=Cn1c2nc3ccccc3c-2nc2ccccc21 quantity_measured="growth inhibition" measurement=97
compound=CNc1nc(C)nc2c1cnn2-c1ccc([N+](=O)[O-])cc1 quantity_measured="growth inhibition" measurement=80
compound=O/N=C/C1c2ccccc2-c2ccccc21 quantity_measured="growth inhibition" measurement=88
compound=c1ccc(N2N=C3N(c4ccccc4)C2N3c2ccccc2)cc1 quantity_measured="growth inhibition" measurement=93
compound=O=C(/C=C/c1cccc2ccccc12)c1ccc(Cl)cc1 quantity_measured="growth inhibition" measurement=-48
compound=CCC(=O)Oc1ccc(/C=N/NC(N)=S)nc1 quantity_measured="growth inhibition" measurement=11
compound="CN(Cc1cnc2nc(N)nc(N)c2n1)c1ccc(C(=O)NC(CCC(=O)O)C(=O)O)c2ccccc12 (stereo not drawn)" quantity_measured="growth inhibition" measurement=85
compound="Nc1nc2c(c(=O)[nH]1)NC(CCNc1ccc(C(=O)O)cc1)CN2 (stereo not drawn)" quantity_measured="growth inhibition" measurement=-3
compound=O=C(Nc1ccc2c(c1)Cc1c-2ccc([N+](=O)[O-])c1F)C(F)(F)F quantity_measured="growth inhibition" measurement=3
compound=Cc1ccc(N=Nc2ccc(O)c(C)c2)cc1 quantity_measured="growth inhibition" measurement=85
compound=COc1ccc(/C=C(\NC(=O)c2ccccc2)C(=O)NN(C)c2ccnc3cc(Cl)ccc23)cc1OC quantity_measured="growth inhibition" measurement=31
compound="CC(=O)NC(CC(C)C)C(=O)NC(Cc1ccccc1)C(=O)CCl (stereo not drawn) (Ac-Leu-Phe-CH2Cl; configuration not given here)" quantity_measured="growth inhibition" measurement=75
compound=COc1ccc(/C=C2\SC(=S)N(C=C3C(=O)NC(=S)NC3=O)C2=O)cc1OC quantity_measured="growth inhibition" measurement=93
compound=Clc1cc(-c2ccccc2)nc2ccccc12 quantity_measured="growth inhibition" measurement=82
compound=C/C(=N\NC(=S)NNC(=S)N(C)c1ccccc1)c1ccccn1 quantity_measured="growth inhibition" measurement=88
compound="CN(C)CC1CCCc2ccccc2C1=O (stereo not drawn)" quantity_measured="growth inhibition" measurement=84
compound=CCCCCC(=O)c1ccc(O)cc1O quantity_measured="growth inhibition" measurement=98
compound=Cc1cc(Cl)nc2nc(Cl)c(N)cc12 quantity_measured="growth inhibition" measurement=63
compound=O=C1C=CC(=O)N1c1ccc(N2C(=O)C=CC2=O)cc1 quantity_measured="growth inhibition" measurement=99
compound=Cc1nc2c(ncn2CCO)c(=O)[nH]1 quantity_measured="growth inhibition" measurement=-2
compound=Nc1ccc(S(=O)(=O)Nc2ccc(Nc3c4ccccc4nc4ccccc34)cc2)cc1 quantity_measured="growth inhibition" measurement=79
compound=CCN1/C(=C/c2ccc3ccccc3[n+]2CC)C=Cc2ccccc21 quantity_measured="growth inhibition" measurement=97
compound=O=C1c2cccc3cc([N+](=O)[O-])cc(c23)C(=O)N1CCN1CCCC1 quantity_measured="growth inhibition" measurement=50
compound=CCCCOC(=O)CSSCC(=O)OCCCC quantity_measured="growth inhibition" measurement=96
compound=Clc1cc(Cc2ccc(N=C/C=C/c3ccccc3)c(Cl)c2)ccc1N=C/C=C\c1ccccc1 quantity_measured="growth inhibition" measurement=41
compound=N#C/C(=C/N1C(=O)/C(=C/c2ccc([N+](=O)[O-])cc2)SC1=S)c1nc2ccccc2s1 quantity_measured="growth inhibition" measurement=82
compound=CN(CC(=O)O)c1ccc(/C=C/c2ccnc3ccccc23)cc1 quantity_measured="growth inhibition" measurement=65

* * *

Assay: NCI Yeast Anticancer Drug Screen. Data for the sgs1 strain (AID 173);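 note: 0% = growth of vehicle-only control cultures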
Conditions: S. cerevisiae sgs1 mutant, at 33.0 µM, active compounds read high
Description: Growth inhibition of yeast strains with defined genetic alterations is measured as a screen for potential anti-cancer activity. Selected strains with alterations in DNA damage repair or cell cycle control were exposed to compounds and growth inhibition was measured relative to vehicle treated controls. The strain used in this assay is sgs1
This is part of a sample that, as a whole, favours compounds with a hit. Of some 79,000 tested, about 15% had one in any assay.
quantity_measured: growth inhibition (%)

compound=Cc1ccc(S(=O)(=O)N/N=C/C2(c3ccccc3)c3ccccc3-c3ccccc32)cc1 quantity_measured="growth inhibition" measurement=82
compound=N#C/C(=C/N1C(=O)/C(=C/c2ccc([N+](=O)[O-])cc2)SC1=S)c1nc2ccccc2s1 quantity_measured="growth inhibition" measurement=61
compound="O=C1C(Cl)=C(Cl)C(Cl)(Cl)C(Cl)C1(Cl)Cl (stereo not given)" quantity_measured="growth inhibition" measurement=100
compound=CNc1ccc(Cc2c[nH]c3ccccc23)cc1 quantity_measured="growth inhibition" measurement=11
compound="CC1OC(OC2CCCc3c(O)c4c(c(O)c32)C(=O)c2ccccc2C4=O)CC(N)C1O (stereo not given)" quantity_measured="growth inhibition" measurement=97

* * *

test: NCI Yeast Anticancer Drug Screen. Data for the cln2 rad14 strain (AID 165);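 note: 0% = growth equal to vehicle treated cultures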; conditions: S. cerevisiae cln2 rad14 strain, at 50.0 µM (retest, dose inferred, filed as 5.0), active compounds read high
The panel holds about 79,000 compounds, 15% with a hit somewhere; the sample as a whole holds those more often.
quantity_measured: growth inhibition (%)

compound_structure_string=O=C(N/N=C\c1c(Cl)cccc1Cl)N/N=C/c1c(Cl)cccc1Cl unit=% measurement=70
compound_structure_string=CCNc1ccc2c(c1)C(=O)N(OS(C)(=O)=O)C2=O unit=% measurement=21
compound_structure_string=COC(=O)c1oc([N+](=O)[O-])c(Cl)c1Cl unit=% measurement=99
compound_structure_string=CC(C)c1[nH]nc(C(N)=O)c1N=NN(C)C unit=% measurement=-43
compound_structure_string=NC(N)=NCCCS(=O)(=O)Nc1ccc(Nc2c3ccccc3nc3cc([N+](=O)[O-])ccc23)cc1 unit=% measurement=66

Values were extracted from PubChem BioAssay (NCI).
